Test: chemical genetic growth profiling, strain panel (AID 1159580);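 also: tested at 20 µM; growth read once vehicle control cultures reached saturation at 30 °C; 1 = growth at the plate median or of vehicle wells; lower values mean less growth of the strain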
Settings: S. cerevisiae deletion strains, growth OD, locus YCL061C, strain MRC1, active compounds read low
The whole screen tested about 5,500 compounds, of which about 2,000 (36%) were called active. Not shown: some 18% with an inconclusive outcome. Some of the results follow.
Could you please report measured normalized growth for the items listed next?
// no unit, no text: just the number

Query block: Report normalized growth for Nc1ccc(Sc2cc(Cl)ccc2Cl)nc1
Result block: 0.958

Query block: Report normalized growth for CC(C)[C@@H]1CC[C@@H](C)CC1=O
Result block: 0.997

Query block: Report normalized growth for CCCCCC/C=C\CCCCCCCc1cccc(O)c1C(=O)O
Result block: 0.989
